B1: glmS ribozyme (parent)
chain: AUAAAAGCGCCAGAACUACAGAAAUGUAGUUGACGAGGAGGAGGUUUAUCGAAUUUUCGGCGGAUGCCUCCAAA

Variants of: B1
Assay: self-cleavage kobs at 640 uM GlcN6P; higher = faster cleavage; RNA array
Settings: with glucosamine-6-phosphate
This sample holds only a part of the variants without activity.
Record form. Attribute: self-cleavage kobs at 640 uM GlcN6P. Fill in for each entry.

[[record]]
variantcode = "G40U U49C"
endpointvalue = "< 1e-05 s⁻¹"

[[record]]
variantcode = "A48C G51A"
endpointvalue = "< 1e-05 s⁻¹"

[[record]]
variantcode = "C10U A52U C67A C68A U69G"
endpointvalue = "8.14e-05 s⁻¹"

[[record]]
variantcode = "A15G G35C"
endpointvalue = "< 1e-05 s⁻¹"


Below are some variants; for each one, tell me its self-cleavage kobs at 640 uM GlcN6P.
1. A12U U31C U47G
2. A6G U30A A39U G60U
3. G9C U45A C68A
4. U30C G59C
5. G32C U56G
6. A14U C16A G66A
7. G9C U56G

Out:
1: 0.000212 s⁻¹; 2: < 1e-05 s⁻¹; 3: < 1e-05 s⁻¹; 4: < 1e-05 s⁻¹; 5: 2.63e-05 s⁻¹; 6: 3.92e-05 s⁻¹; 7: < 1e-05 s⁻¹

Hi there! I need self-cleavage kobs at 640 uM GlcN6P for each item below, if you can.
1. A6G C16G G38A
2. C8G U56G C70U C71A
3. C11G A42C
4. G37U U46G
5. G29U U56C C61G
6. C8U A14U U57C G59U
7. G35U U57G C71A
8. G7A A12C A42C U49C

Out:
< 1e-05 s⁻¹
< 1e-05 s⁻¹
< 1e-05 s⁻¹
< 1e-05 s⁻¹
< 1e-05 s⁻¹
< 1e-05 s⁻¹
< 1e-05 s⁻¹
< 1e-05 s⁻¹

Give me self-cleavage kobs at 640 uM GlcN6P for each of these variants, listed below.
1. G29U A52G
2. C8G A33U U46A U69G
3. C16A A42U G63U
4. G59C G62A
5. C34A U56G

Out:
1: 6.73e-05 s⁻¹; 2: < 1e-05 s⁻¹; 3: < 1e-05 s⁻¹; 4: < 1e-05 s⁻¹; 5: < 1e-05 s⁻¹
